We begin with a simple list: items and their reported IC50.
molecular target: Stat1:3 (Mus musculus); construct: endogenous in cells; assay: STATs DNA-binding activity in vitro, EMSA with hSIE probe; settings: Table 4; read-out: IC50 values for the inhibition of STATs DNA-binding activity in vitro, Stat1:3
Sequence (P42227 2-770 limits assumed): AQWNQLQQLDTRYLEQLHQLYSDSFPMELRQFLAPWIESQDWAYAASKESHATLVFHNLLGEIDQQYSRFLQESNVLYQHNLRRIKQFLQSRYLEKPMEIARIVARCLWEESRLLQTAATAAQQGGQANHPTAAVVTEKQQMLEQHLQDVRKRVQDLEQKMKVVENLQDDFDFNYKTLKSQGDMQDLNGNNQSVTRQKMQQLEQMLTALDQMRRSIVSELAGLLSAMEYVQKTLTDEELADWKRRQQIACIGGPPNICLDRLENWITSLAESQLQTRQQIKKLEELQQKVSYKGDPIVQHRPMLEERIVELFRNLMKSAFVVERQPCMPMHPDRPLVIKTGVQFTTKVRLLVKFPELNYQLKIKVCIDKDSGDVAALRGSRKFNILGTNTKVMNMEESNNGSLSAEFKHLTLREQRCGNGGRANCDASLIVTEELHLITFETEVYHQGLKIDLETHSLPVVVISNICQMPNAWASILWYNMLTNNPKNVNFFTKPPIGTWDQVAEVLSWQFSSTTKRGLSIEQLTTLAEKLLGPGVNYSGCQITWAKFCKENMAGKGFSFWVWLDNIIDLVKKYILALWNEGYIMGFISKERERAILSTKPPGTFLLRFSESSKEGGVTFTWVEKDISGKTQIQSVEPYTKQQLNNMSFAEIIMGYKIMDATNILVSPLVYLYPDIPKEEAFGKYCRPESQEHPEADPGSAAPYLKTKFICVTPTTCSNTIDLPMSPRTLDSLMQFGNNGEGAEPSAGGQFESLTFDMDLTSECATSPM

# example entries with known answers
O=C(O)c1cc(O)c(O)c(OC(=O)c2cc(O)c(O)c(O)c2CNc2ccc3cc(S(=O)(=O)O)cc(S(=O)(=O)O)c3c2)c1 ... 86 µM
CN=C(Nc1ccccn1)c1ccc(NC(=O)c2ccc(C(=O)Nc3ccc(C(=NC)Nc4ccccn4)cc3)cc2)cc1 ... > 300 µM
CC(=O)NNc1nc(C)c(C(/C=C/c2cccc([N+](=O)[O-])c2)=N/NC(=S)NN)s1 ... > 300 µM
O=C(OC1COC(n2c(=O)oc3cc([N+](=O)[O-])ccc32)C(OC(=O)c2ccccc2)C1OC(=O)c1ccccc1)c1ccccc1 (stereo not drawn) ... > 300 µM
CC(C)NC(=O)c1cc(NC(=O)c2ccc(C(=O)Nc3cc(C(=O)NC(C)C)cc(C4=NCCN4)c3)cc2)cc(C2=NCCN2)c1 ... > 300 µM

Prompt: Please give the measured IC50 for this molecule: "Cc1cc(N=Nc2ccc(-c3ccc(N=Nc4ccc(O)c(C(=O)O)c4)cc3)cc2)c(N)c(N=Nc2cc(C(=O)O)ccc2Cl)c1N.[Na+]"
Completion: 104 µM

* * *

We begin with a simple list: items and their reported IC50.
molecular target: Stat1:1 (Mus musculus); construct: endogenous in cells; assay: STATs DNA-binding activity in vitro, EMSA; conditions: Table 4; read-out: IC50 values for the inhibition of STATs DNA-binding activity in vitro, Stat1:1
Sequence (P42225 2-749 limits assumed): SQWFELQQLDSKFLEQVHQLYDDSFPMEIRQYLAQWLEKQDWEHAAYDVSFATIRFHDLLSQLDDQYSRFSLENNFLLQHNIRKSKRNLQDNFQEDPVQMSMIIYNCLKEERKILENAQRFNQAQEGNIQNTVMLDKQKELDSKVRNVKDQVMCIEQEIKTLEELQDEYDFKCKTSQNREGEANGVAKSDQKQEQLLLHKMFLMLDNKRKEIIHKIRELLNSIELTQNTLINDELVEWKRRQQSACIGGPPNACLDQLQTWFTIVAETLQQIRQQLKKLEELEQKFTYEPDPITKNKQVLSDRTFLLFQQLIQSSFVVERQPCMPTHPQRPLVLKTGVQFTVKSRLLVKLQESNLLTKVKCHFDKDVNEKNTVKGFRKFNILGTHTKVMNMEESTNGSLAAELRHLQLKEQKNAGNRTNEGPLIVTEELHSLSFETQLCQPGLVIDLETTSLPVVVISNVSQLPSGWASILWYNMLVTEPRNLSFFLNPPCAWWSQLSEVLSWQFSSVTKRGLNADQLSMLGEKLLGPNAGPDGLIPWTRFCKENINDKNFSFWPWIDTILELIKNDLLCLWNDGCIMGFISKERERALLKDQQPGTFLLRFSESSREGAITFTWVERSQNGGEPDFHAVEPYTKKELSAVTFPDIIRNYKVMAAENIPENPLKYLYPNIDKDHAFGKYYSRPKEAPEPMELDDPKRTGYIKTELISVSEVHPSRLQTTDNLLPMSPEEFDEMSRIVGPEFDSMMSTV
Number only, in µM; omit the unit.

Cc1cc(N=Nc2ccc(-c3ccc(N=Nc4ccc(O)c(C(=O)O)c4)cc3)cc2)c(N)c(N=Nc2cc(C(=O)O)ccc2Cl)c1N.[Na+] ... 72

Prompt: Please give the measured IC50 for this compound: "N#Cc1cc([N+](=O)[O-])ccc1NC(=O)C(=O)Nn1c(=S)[nH]c2ccccc2c1=O"
Completion: 205

* * *

target: Stat1:3 (Mus musculus); construct: endogenous in cells; host or cells: EGF-stimulated NIH3T3/hEGFR mouse fibroblasts, nuclear extracts; experiment: STATs DNA-binding activity in vitro, EMSA with hSIE probe; details: Table 4; read-out: IC50 values for the inhibition of STATs DNA-binding activity in vitro, Stat1:3
property: pIC50
Reminder that pIC50 means the negative base-10 logarithm of the concentration expressed in mol/L.

# example entries with known answers
O=C1c2ccccc2-c2ccc(N(Cc3ccc([N+](=O)[O-])cc3)Cc3ccc([N+](=O)[O-])cc3)cc21 ... 3.59
O=C1C=C(Nc2ccc(S(=O)(=O)Nc3ccccn3)cc2)C(=O)C=C1Nc1ccc(S(=O)(=O)Nc2ccccn2)cc1 ... 3.84
N#Cc1cc([N+](=O)[O-])ccc1NC(=O)C(=O)Nn1c(=S)[nH]c2ccccc2c1=O ... 3.60

Prompt: Please give the measured pIC50 for this compound: "O=C(O)c1cc(N=C2C=CC(=C(c3ccccc3)c3ccc(Nc4ccc(Cl)c(C(=O)O)c4)cc3)C=C2)ccc1Cl"
Completion: 3.53

Prompt: Please give the measured pIC50 for this compound: "CCCCCCCCCCCC(=O)NC(=S)Nc1ccc(C(=O)O)cc1"
Completion: 3.54

Prompt: Please give the measured pIC50 for this compound: "Cc1cc(N=Nc2ccc(-c3ccc(N=Nc4ccc(O)c(C(=O)O)c4)cc3)cc2)c(N)c(N=Nc2cccc(OCC(=O)O)c2)c1N"
Completion: 3.58

Prompt: Please give the measured pIC50 for this compound: "O=C(Nc1cccc(NC(=O)C(=O)O)c1)Oc1ccccc1"
Completion: 3.59
